synergy score values, listed per item
System: EJM cells
Assay: Anti-proliferation assay (ATPLite, 72 h), EJM
Type: cell-based
Conditions: in combination with CGS-21680
property.name: synergy score

INSERT INTO measurements (compound, property_name, reported) VALUES
  ('O=C(Nc1c(Cl)cncc1Cl)c1ccc(OC(F)F)c(OCC2CC2)c1 [roflumilast]', 'synergy score', 1.06),
  ('Nc1cccc2c1CN(C1CCC(=O)NC1=O)C2=O (centres unmarked) [lenalidomide]', 'synergy score', 0.32),
  ('COc1cc2c(cc1OC)-c1cc(=Nc3c(C)cc(C)cc3C)n(C)c(=O)n1CC2 [Trequinsin]', 'synergy score', 4.81),
  ('C[C@@H]1C[C@H]2[C@@H]3CCC4=CC(=O)C=C[C@]4(C)[C@@]3(F)[C@@H](O)C[C@]2(C)[C@@]1(O)C(=O)CO [dexamethasone]', 'synergy score', 5.32),
  ('COc1cccc2c1C(=O)c1c(O)c3c(c(O)c1C2=O)C[C@@](O)(C(=O)CO)C[C@@H]3O[C@H]1C[C@H](N)[C@H](O)[C@H](C)O1 [doxorubicin]', 'synergy score', 1.21);

---

Test system: MM.1R cells
Assay: Anti-proliferation assay (ATPLite, 72 h), MM.1R
Assay type: cell-based
Conditions: in combination with HE-NECA; MM.1R
Structures can show the parent of a compound that is named as a salt.
property.name: synergy score

INSERT INTO measurements (compound, experimental_target, reported) VALUES
  ('O=C1C=C2C(=CCOC2O)O1 (stereo not drawn) [Patulin]', 'MM.1R cells', 1.73),
  ('CCCCc1oc2ccccc2c1C(=O)c1cc(I)c(OCCN(CC)CC)c(I)c1 [Amiodarone]', 'MM.1R cells', 0.67),
  ('CN1C[C@H](C(=O)N[C@]2(C)O[C@@]3(O)[C@@H]4CCCN4C(=O)[C@H](Cc4ccccc4)N3C2=O)C[C@@H]2c3cccc4[nH]cc(c34)C[C@H]21 [Dihydroergotamine]', 'MM.1R cells', 2.56),
  ('CC(C)[C@]12O[C@H]1[C@@H]1O[C@]13[C@]1(O[C@H]1C[C@H]1C4=C(CC[C@@]13C)C(=O)OC4)[C@@H]2O [Triptolide]', 'MM.1R cells', 2.12),
  ('CCCCOc1ccc(CC(=O)NO)cc1 [Bufexamac]', 'MM.1R cells', 3.173),
  ('O=c1[nH]c(=O)n([C@H]2C[C@H](O)[C@@H](CO)O2)cc1C(F)(F)F [Trifluridine]', 'MM.1R cells', 1.94),
  ('CCc1c2c(nc3ccc(OC(=O)N4CCC(N5CCCCC5)CC4)cc13)-c1cc3c(c(=O)n1C2)COC(=O)[C@]3(O)CC [Irinotecan hydrochloride]', 'MM.1R cells', 0.6972),
  ('O=c1cc(N2CCOCC2)oc2c(-c3ccccc3)cccc12 [LY 294002]', 'MM.1R cells', 0.83),
  ('CC(=O)S[C@@H]1CC2=CC(=O)CC[C@]2(C)[C@H]2CC[C@@]3(C)[C@@H](CC[C@@]34CCC(=O)O4)[C@H]12 [Spironolactone]', 'MM.1R cells', 1.151);

---

Let's look at some molecules and their measured Synergy score with dexamethasone, MM.1S.
System: MM.1S cells
Assay: Anti-proliferation assay (ATPLite, 72 h), MM.1S
Details: combination with dexamethasone; Loewe-based Synergy Score; 72 h
property.name: Synergy score with dexamethasone, MM.1S

INSERT INTO results (molecule, reported) VALUES
  ('COc1ccc(Cc2nccc3cc(OC)c(OC)cc23)cc1OC [Papaverine]', 2.99),
  ('CN(C(=O)CCCOc1ccc2[nH]c(=O)ccc2c1)C1CCCCC1 [Cilostamide]', 1.34),
  ('CCNC(=O)[C@H]1O[C@@H](n2cnc3c(N)nc(NCCc4ccc(CCC(=O)O)cc4)nc32)[C@H](O)[C@@H]1O [CGS-21680]', 4.73),
  ('CNC(=O)[C@H]1O[C@@H](n2cnc3c(NCc4cccc(I)c4)nc(Cl)nc32)[C@H](O)[C@@H]1O [Chloro-IB-MECA]', 8.37),
  ('OC[C@H]1O[C@@H](n2cnc3c(NC4CCCC4)nc(Cl)nc32)[C@H](O)[C@@H]1O [CCPA, 2-chloro-N^6-cyclopentyladenosine]', 5.15),
  ('COc1ccc(C2CNC(=O)C2)cc1OC1CCCC1 (centres unmarked) [Rolipram]', 0.203),
  ('COc1cc2c(cc1OC)-c1cc(=Nc3c(C)cc(C)cc3C)n(C)c(=O)n1CC2 [Trequinsin]', 3.21),
  ('COc1ccc(Cc2nn3c([C@@H](CCCc4ccccc4)[C@@H](C)O)nc(C)c3c(=O)[nH]2)cc1OC [BAY 60-7550]', 1.44);

---

Test system: SU-DHL6 DLBCL cells
Test: Anti-proliferation assay (ATPLite, 72 h), SU-DHL6
Type: cell-based
Details: in combination with CGS-21680
Items are presented alongside their recorded synergy score.
property.name: synergy score

INSERT INTO assay_data (chem_smiles, reported) VALUES
  ('C[C@@H]1C[C@H]2[C@@H]3CCC4=CC(=O)C=C[C@]4(C)[C@@]3(F)[C@@H](O)C[C@]2(C)[C@@]1(O)C(=O)CO', 4.85),
  ('COc1cc2c(cc1OC)-c1cc(=Nc3c(C)cc(C)cc3C)n(C)c(=O)n1CC2', 0.92),
  ('O=C(Nc1c(Cl)cncc1Cl)c1ccc(OC(F)F)c(OCC2CC2)c1', 0.93),
  ('Cn1c2ccccc2c2c3c(c4c5ccccc5n(CCC#N)c4c21)CNC3=O', 3.69);

---

# maps each entry to its synergy score
System: Karpas 422 DLBCL cells
Assay: Anti-proliferation assay (ATPLite, 72 h), Karpas 422
Format: cell-based
Settings: in combination with CGS-21680
property.name: synergy score

INSERT INTO measurements (compound, experimental_target, reported) VALUES
  ('Cn1c2ccccc2c2c3c(c4c5ccccc5n(CCC#N)c4c21)CNC3=O [Go 6976]', 'Karpas 422 DLBCL cells', 2.91),
  ('COc1cc2c(cc1OC)-c1cc(=Nc3c(C)cc(C)cc3C)n(C)c(=O)n1CC2 [Trequinsin]', 'Karpas 422 DLBCL cells', 2.11),
  ('C[C@@H]1C[C@H]2[C@@H]3CCC4=CC(=O)C=C[C@]4(C)[C@@]3(F)[C@@H](O)C[C@]2(C)[C@@]1(O)C(=O)CO [dexamethasone]', 'Karpas 422 DLBCL cells', 4.32),
  ('O=C(Nc1c(Cl)cncc1Cl)c1ccc(OC(F)F)c(OCC2CC2)c1 [roflumilast]', 'Karpas 422 DLBCL cells', 3.38);

---

Tested on: H929 cells
Assay: Anti-proliferation assay (ATPLite, 72 h), H929
Type: cell-based
Conditions: in combination with ADAC; H929
Structures can show the parent of a compound that is named as a salt.
property.name: synergy score

INSERT INTO results (compound, reported) VALUES
  ('Cn1cnc([N+](=O)[O-])c1Sc1ncnc2nc[nH]c12', 1.22),
  ('CCCCOc1ccc(CC(=O)NO)cc1', 1.12),
  ('C[C@@H]1C[C@H]2[C@@H]3CCC4=CC(=O)C=C[C@]4(C)[C@@]3(F)[C@@H](O)C[C@]2(C)[C@@]1(O)C(=O)CO', 7.09),
  ('Nc1ccn([C@@H]2O[C@H](CO)[C@@H](O)C2(F)F)c(=O)n1', 0.07),
  ('CCc1c2c(nc3ccc(OC(=O)N4CCC(N5CCCCC5)CC4)cc13)-c1cc3c(c(=O)n1C2)COC(=O)[C@]3(O)CC [Irinotecan hydrochloride]', 1.877),
  ('CC(=O)S[C@@H]1CC2=CC(=O)CC[C@]2(C)[C@H]2CC[C@@]3(C)[C@@H](CC[C@@]34CCC(=O)O4)[C@H]12', 0.6779),
  ('COc1cccc2c1C(=O)c1c(O)c3c(c(O)c1C2=O)C[C@@](O)(C(=O)CO)C[C@@H]3O[C@H]1C[C@H](N)[C@@H](O)[C@H](C)O1 [Epirubicin]', 0.33),
  ('C[C@H]1c2cccc(O)c2C(=O)C2=C(O)[C@]3(O)C(=O)C(C(N)=O)=C(O)[C@@H](N(C)C)[C@@H]3[C@@H](O)[C@@H]21', 2.35);

Data credit: patent US20090053168A1
